test system: Plasmodium berghei; test: Screen against P. berghei liver stage (PbLuc), transformed with Luciferase, at 10uM; format: functional, HepG2; settings: tested at 10 uM
In all, about 69,000 compounds went through this assay and about 8,600 (12%) showed an effect of 50% or more. The sample holds strong results, similar compounds and a random draw of the others, so the mix is not that of the screen.
Use INHIBITION to assign classes; range list: bottom end: < -10%; midrange: ≥ -10% and < 50%; top end: ≥ 50%

Consider the worked cases shown below.
1) Cc1cnn(CC2CCCCN2CC(=O)N(C)Cc2ccc(C)o2)c1 (stereo not given)	top end
2) Cn1cc(N2CC3(CCN(CC4CCOCC4)CC3)OCC2=O)cn1	bottom end
3) Cc1cc(C)n(CC2CCCN2CC(=O)N(C)Cc2ccc(C)o2)n1 (stereo not given)	midrange
4) O=C(O)CC(CC(=O)NCc1ccsc1)c1cccs1 (stereo not given)	bottom end
5) CC(C)NC(=O)N1CCN(CC2CC2)c2ncccc2C1	midrange

Proceed to the following item.
stdin: Which INHIBITION category applies to `COC(=O)c1cccn1C1CCN(C(=O)c2cc(F)ccc2C)CC1` here?
stdout: midrange

* * *

tested on: Plasmodium berghei; test: Screen against P. berghei liver stage (PbLuc), transformed with Luciferase, at 10uM; format: functional, HepG2; conditions: tested at 10 uM
The campaign covered roughly 69,000 compounds. About 8,600 (12%) showed an effect of 50% or more. What follows is part of a selection rich in strong results, with near analogues and random picks from the rest.
READOUT NAME: INHIBITION (%)
A number alone suffices; assume %.

1) Cc1nsc(N2CCN(CC(=O)NCc3cccnc3)CC2)n1	-101
2) Cc1cccc(C(C)(C)NC(=O)CCS(C)(=O)=O)c1	51
3) c1coc(CN2CCn3c(COCC4CC4)nnc3C2)c1	18.5
4) CCC(C)(COc1ncccc1Cl)NCC(=O)NCC(C)C (stereo not given)	57.4

Consider COc1cc(C)sc1C(=O)N1CCCC(n2nc(C)nc2C)C1 (stereo not given) . Its measured INHIBITION is 48.2

Consider C=C(C)COc1ccc(C(CC(=O)OC)c2oc(C)cc(=O)c2O)cc1 (stereo not given) . Its measured INHIBITION is -24.7

Consider `CNS(=O)(=O)c1cnccc1N1CCN(C(C)C)CC1` . Its measured INHIBITION is -5.26

Consider `CS(=O)(=O)c1snnc1C1CCN(Cc2cccnc2)CC1` . Its measured INHIBITION is 48.6

Consider `CC(=O)NCCNC(=O)c1cccc(Cn2nc(C)cc2C)c1` . Its measured INHIBITION is -18.9

Consider CCC(C(=O)NC)N(c1cccc(C)c1)S(C)(=O)=O (stereo not given) . Its measured INHIBITION is 0.547

* * *

tested on: Plasmodium berghei; assay: Screen against P. berghei liver stage (PbLuc), transformed with Luciferase, at 10uM; format: functional, HepG2; conditions: tested at 10 uM
In all, about 69,000 compounds went through this assay and about 8,600 (12%) showed an effect of 50% or more. Only a selection was taken, and strong results are over-represented in it overall.
Rule: Fulfilled for INHIBITION not less than 20%, Not fulfilled for anything less.

1. CCc1oc(C(=O)N2CCC(N(CC)C(C)=O)C2)cc1CN(CC)CC (configuration not stated)	Not fulfilled

stdin: Decide: is the reported value of INHIBITION for `Cc1ccc(N2CCc3sc(C(=O)NCCN4CCCC4)cc32)nn1` equal to or greater than 20%?
stdout: Not fulfilled

stdin: Decide: is the reported value of INHIBITION for CN1CCC2(COCc3cnc(-c4ccccc4)nc32)C1 (configuration not stated) equal to or greater than 20%?
stdout: Not fulfilled

stdin: Decide: is the reported value of INHIBITION for `O=C(NCC1CC1)c1cc2c(s1)CCN2c1ncccn1` equal to or greater than 20%?
stdout: Fulfilled

stdin: Decide: is the reported value of INHIBITION for N#Cc1cccc(N2CC3(CCN(C(=O)c4ccncc4)C3)CC2=O)c1 (configuration not stated) equal to or greater than 20%?
stdout: Fulfilled

stdin: Decide: is the reported value of INHIBITION for `CCn1nnc(NCc2cc(Cl)cc(Cl)c2OC)n1` equal to or greater than 20%?
stdout: Not fulfilled

stdin: Decide: is the reported value of INHIBITION for COCCNC(=O)C(C)N1CCN(C)CC1 (configuration not stated) equal to or greater than 20%?
stdout: Not fulfilled

stdin: Decide: is the reported value of INHIBITION for `CNC(=O)[C@H]1C[C@@H]2CN(C(=O)c3occc3C)C[C@@H]2N1S(C)(=O)=O` equal to or greater than 20%?
stdout: Not fulfilled

stdin: Decide: is the reported value of INHIBITION for `O=c1c2c[nH]c(N3CCCCC3)nc-2cn1-c1ccc2c(c1)OCO2` equal to or greater than 20%?
stdout: Not fulfilled

stdin: Decide: is the reported value of INHIBITION for Cn1cc(CCNC(=O)N2CCCC(c3nncn3C)C2)cn1 (configuration not stated) equal to or greater than 20%?
stdout: Not fulfilled

stdin: Decide: is the reported value of INHIBITION for CN(C)c1ncc2c(n1)C1(CCN(CC3CC3)C1)COC2 (configuration not stated) equal to or greater than 20%?
stdout: Fulfilled

stdin: Decide: is the reported value of INHIBITION for `CNC(=O)[C@H]1C[C@@H]2CN(S(=O)(=O)c3ccc(C)c(F)c3)C[C@@H]2N1C` equal to or greater than 20%?
stdout: Not fulfilled

stdin: Decide: is the reported value of INHIBITION for CCOC(CC)C(=O)NCCC(=O)N1CCN(c2ccccn2)CC1 (configuration not stated) equal to or greater than 20%?
stdout: Not fulfilled

stdin: Decide: is the reported value of INHIBITION for `O=C(N[C@@H]1CCC[C@@H](N2CCOCC2)[C@@H]1O)c1ncccn1` equal to or greater than 20%?
stdout: Fulfilled

stdin: Decide: is the reported value of INHIBITION for `CC(C)c1nn(C)cc1CNCc1ccnc(N(C)C)c1` equal to or greater than 20%?
stdout: Fulfilled

stdin: Decide: is the reported value of INHIBITION for `Cc1ccc(CN(CCN(C)C)Cc2c(C)nc3sccn23)o1` equal to or greater than 20%?
stdout: Fulfilled

stdin: Decide: is the reported value of INHIBITION for O=C(CC1CC1)N1CCC2(COCc3cnc(-c4ccccc4)nc32)C1 (configuration not stated) equal to or greater than 20%?
stdout: Not fulfilled

* * *

system: Plasmodium berghei; test: Screen against P. berghei liver stage (PbLuc), transformed with Luciferase, at 10uM; assay type: functional, HepG2; settings: tested at 10 uM
The whole screen tested about 69,000 compounds, of which about 8,600 (12%) showed an effect of 50% or more. For the sample, strong results were picked, then their nearest neighbours and some compounds at random.
Rule: True for INHIBITION not less than 60%, False for anything less.

Consider the worked cases shown below.
1. Clc1ccc(C2(CNC3=NCCN3)CCCC2)cc1	True
2. CC(CCc1ccccc1F)C(=O)NS(=O)(=O)N(C)C(C)C (configuration not stated)	True
3. Cn1cc(CN2CCCCC2c2ccc(-c3cccc(F)c3)nc2)cn1 (configuration not stated)	True
4. COc1ccccc1OCCC(=O)NC1CCc2nc(C)cn2C1 (configuration not stated)	False
5. Cc1cnn(CCC(=O)NC2CCc3nc(C)cn3C2)c1 (configuration not stated)	False

stdin: Decide: is the reported value of INHIBITION for Cc1cn2c(n1)CCC(NC(=O)c1[nH]nc(C)c1Br)C2 (configuration not stated) equal to or greater than 60%?
stdout: True

stdin: Decide: is the reported value of INHIBITION for Cn1cc(CN2CCCCC2c2ccc(-c3cccc(Cl)c3)nc2)cn1 (configuration not stated) equal to or greater than 60%?
stdout: False

* * *

molecules and their reported INHIBITION
test system: Plasmodium berghei; test: Screen against P. berghei liver stage (PbLuc), transformed with Luciferase, at 10uM; type: functional, HepG2; conditions: tested at 10 uM
About 8,600 (12%) of roughly 69,000 compounds showed an effect of 50% or more. For the sample, strong results were picked, then their nearest neighbours and some compounds at random.
A number alone suffices; assume %.

Illustrative cases are given below, each with its answer.
1) Cc1cccc(Nc2nccnc2C2CCCN(CC(=O)N(C)C)C2)n1 (centres undefined)	36.7
2) Cc1cccc(Nc2cc(C3CCCN(CC(N)=O)C3)ccn2)n1 (centres undefined)	81.55
3) Cc1nnc(Nc2cccc(C3CCCN(Cc4ncc[nH]4)C3)n2)s1 (centres undefined)	62.9
4) CNc1cccc(C2CCCN(Cc3ncc[nH]3)C2)n1 (centres undefined)	15.9
5) Cc1cccc(CNc2cc(C3CCCNC3)ccn2)n1 (centres undefined)	50.45

Consider `CN(C)C(=O)c1cc2c(s1)CCN(C(=O)CCCN1CCCCC1)C2` . Its measured INHIBITION is 71.5

Consider NC(=O)CN1CCCC(c2ccnc(Nc3ncccn3)c2)C1 (centres undefined) . Its measured INHIBITION is 37.55

Consider CNC(=O)c1cc2c(s1)CCN(C(=O)CCC1CCCN(C)C1)C2 (centres undefined) . Its measured INHIBITION is 42.6

Consider CS(=O)(=O)C1(C(=O)NC2CCc3nccn3C2)CCCC1 (centres undefined) . Its measured INHIBITION is 74.8
